All figures here come from patent US7951829B2.

measured-target: hVR1 (Homo sapiens)
Construct: expressed in transfected cells; host or cells: HEK293
Sequence (Q8NER1 whole entry): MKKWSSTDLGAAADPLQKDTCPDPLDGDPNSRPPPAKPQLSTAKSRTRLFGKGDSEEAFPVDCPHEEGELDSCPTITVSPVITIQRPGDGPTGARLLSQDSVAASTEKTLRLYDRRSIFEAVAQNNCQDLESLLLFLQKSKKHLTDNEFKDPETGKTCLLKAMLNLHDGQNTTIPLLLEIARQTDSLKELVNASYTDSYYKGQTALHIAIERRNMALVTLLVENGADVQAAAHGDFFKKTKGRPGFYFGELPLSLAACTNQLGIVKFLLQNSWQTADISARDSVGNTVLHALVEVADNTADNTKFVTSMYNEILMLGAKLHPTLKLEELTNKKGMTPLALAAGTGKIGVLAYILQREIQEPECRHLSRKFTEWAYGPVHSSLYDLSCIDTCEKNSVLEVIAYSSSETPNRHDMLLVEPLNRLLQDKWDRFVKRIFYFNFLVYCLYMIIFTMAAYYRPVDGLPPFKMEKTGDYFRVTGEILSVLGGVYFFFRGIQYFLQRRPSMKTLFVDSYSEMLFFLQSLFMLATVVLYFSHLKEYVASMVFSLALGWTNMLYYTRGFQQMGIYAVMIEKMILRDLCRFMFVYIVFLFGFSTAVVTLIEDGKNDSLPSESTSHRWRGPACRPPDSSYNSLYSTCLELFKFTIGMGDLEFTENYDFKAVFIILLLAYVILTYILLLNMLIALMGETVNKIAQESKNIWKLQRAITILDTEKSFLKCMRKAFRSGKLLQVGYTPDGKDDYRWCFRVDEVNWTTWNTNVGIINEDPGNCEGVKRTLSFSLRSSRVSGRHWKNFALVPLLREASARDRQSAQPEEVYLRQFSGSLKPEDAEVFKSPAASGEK
assay-summary: Human VR1 (hVR1) Functional Assay (FLIPR intracellular calcium, capsaicin challenge)
Assay type: cell-based
particulars: test concentration 1 μM; capsaicin 0.030 μM; HEK293 cells expressing hVR1
quantity-name: inhibition at 1 µM (%)

Examples from the recorded data:
compound="CS(=O)(=O)c1ccccc1-c1ccc2[nH]c(C3CC3c3ccc(C(F)(F)F)cc3)nc2c1 (stereo not drawn) [Cpd 500]" measured_value=97
compound="CC(C)(C)c1ccc(/C=C/c2nc3cc(-c4cccc(O)c4)c(C(F)(F)F)cc3[nH]2)cc1 [Cpd 49]" measured_value=16
compound="CC(C)(C)c1ccc(/C=C/c2nc3cc(-c4ccccc4C(N)=O)ccc3[nH]2)cc1 [Cpd 5]" measured_value=100
compound="CS(=O)(=O)Nc1ccccc1-c1cc2nc(/C=C/c3ccc(C(F)(F)F)cc3)[nH]c2cc1F [Cpd 65]" measured_value=0
compound="NS(=O)(=O)c1ccccc1-c1ccc2[nH]c(/C=C/c3cccc(Br)c3)nc2c1 [Cpd 376]" measured_value=100
compound="CC(=O)c1ccccc1-c1cc2nc(/C=C/c3ccc(C(F)(F)F)cc3)[nH]c2cc1Cl [Cpd 67]" measured_value=98

[P] NC(=O)c1ccccc1-c1ccc2[nH]c(/C=C/c3ccc(C(F)(F)F)cc3)nc2c1 [Cpd 13]
[Q] CC(C)(C)c1ccc(/C=C/c2nc3cc(-c4cccc(C(N)=O)c4)ccc3[nH]2)cc1 [Cpd 6]
Enquiry: Which one would you say has the larger inhibition at 1 µM value: P , or Q ? Give the label of your selection.
Return: P

[A] FC(F)(F)Oc1ccccc1-c1ccc2[nH]c(/C=C/c3ccc(C(F)(F)F)cc3)nc2c1 [Cpd 488]
[B] NS(=O)(=O)c1ccccc1-c1ccc2[nH]c(/C=C/c3ccccc3C(F)(F)F)nc2c1 [Cpd 364]
[C] CC(C)(C)c1ccc(CCCc2nc3cc(-c4ccccc4O)ccc3[nH]2)cc1 [Cpd 29]
[D] CNS(=O)(=O)c1ccccc1-c1ccc2[nH]c(/C=C/c3ccc(C(=O)NC(C)C)cc3)nc2c1 [Cpd 450]
Enquiry: Form: Sort by [inhibition at 1 µM] Order [ ascending ] In your reply, arrange the labels in the requested order.
Return: A, C, D, B
